MEASURED ON: T1, human MSLN-R3-his protein (human, UniProt Q13421 487-598)
T1 construct: Made in HEK293E cells, purified on nickel column; also called hMSLN-R3-his; human MSLN-R3 protein; not shown: His tag
ASSAY OVERVIEW: ELISA, coated antigen, antibody 0.01 nM
REPORTED PROPERTY: OD450

Name the recorded OD450 for S009-F5-9.16 chimeric antibody (antibody, human IgG1, kappa, V domains shown, Human-murine chimeric antibody, human IgG1/kappa constant regions) VH: EVQLRQSGPVLVKPGASVKMSCKASGYTFTDYFMNWVKPSHGKSLEWIGVINPSNGVINYNQRFKGKATLTVDKSSSTAYMELNSLTSEDSAVYYCARSYDFAWFAYWGQGTLVTVSA VL: DVLMTQTPLSLPVSLGDQASISCRSSQNIVHSNGNTYLEWYLQKPGQSPKLLIYTVSNRFSGVPDRFSGSGSGTDFTLKISRVEAEDLGVYYCFQGSHVPYTFGGGTKLEIKR . 1.11
